The measured values listed here are drawn from patent US11406642B2.

Experiment: Plasma pharmacokinetics of 2,4-DNP, i.v. and oral
Type: in vivo, Sprague-Dawley male rats
Details: male, Sprague-Dawley, rat, plasma, po, 5 mg/kg, 2,4-DNP single oral dose 5 mg/kg, n = 4; read-out: tmax (converted)
recorded.endpoint: Tmax (min)
Numbers only, in min.

Problem: // returns reported Tmax for input `O=[N+]([O-])c1ccc(O)c([N+](=O)[O-])c1`
Solution: 37.5

====

Test: Plasma pharmacokinetics of 2,4-DNP, i.v. and oral
Type: in vivo, Sprague-Dawley male rats
Conditions: male, Sprague-Dawley, rat, plasma, iv, 1 mg/kg, 2,4-DNP single i.v. dose 1 mg/kg, n = 3; read-out: Cmax
recorded.endpoint: Cmax (ng/mL)
Give bare numbers, in ng/mL.

Problem: Please give the measured Cmax for this compound: `O=[N+]([O-])c1ccc(O)c([N+](=O)[O-])c1`
Solution: 11500

====

Test: Plasma pharmacokinetics of II-38 and 2,4-DNP released from II-38
Format: in vivo, Sprague-Dawley male rats
Conditions: male, Sprague-Dawley, rat, in vivo, iv; single i.v. injection of II-38 1.6 mg/kg (eq. to 1 mg/kg 2,4-DNP), n = 2; read-out: Cl of II-38
recorded.endpoint: clearance (mL/min/kg)
One number for each entry, in mL/min/kg.

Problem: Tell me the measured clearance of `O=C(Oc1ccc([N+](=O)[O-])cc1[N+](=O)[O-])N1CCOCC1` , please.
Solution: 3.1

====

Experiment: Plasma pharmacokinetics of II-38 and 2,4-DNP released from II-38
Format: in vivo, Sprague-Dawley male rats
Details: male, Sprague-Dawley, rat, in vivo, po, 25 mg/kg, oral II-38 eq. to 25 mg/kg of 2,4-DNP, PEG-400; read-out: % F of II-38
recorded.endpoint: bioavailability (%)
One number for each entry, in %.

Problem: // query bioavailability value for entry `O=C(Oc1ccc([N+](=O)[O-])cc1[N+](=O)[O-])N1CCOCC1`
Solution: 21.3

====

Assay: Plasma pharmacokinetics of II-38 and 2,4-DNP released from II-38
Format: in vivo, Sprague-Dawley male rats
Details: male, Sprague-Dawley, rat, in vivo, po, 50 mg/kg, oral II-38 eq. 50 mg/kg of 2,4-DNP
recorded.endpoint: Tmax (h)
Numbers only, in h.

Problem: Could you tell me which Tmax is on file for `O=C(Oc1ccc([N+](=O)[O-])cc1[N+](=O)[O-])N1CCOCC1` ?
Solution: 1.69

====

Assay: Plasma pharmacokinetics of II-38 and 2,4-DNP released from II-38
Type: in vivo, Sprague-Dawley male rats
Details: male, Sprague-Dawley, rat, in vivo, po, 50 mg/kg, oral II-38 eq. 50 mg/kg of 2,4-DNP
recorded.endpoint: AUC (ng·h/mL)
Numbers only, in ng·h/mL.

Problem: Report AUC for `O=C(Oc1ccc([N+](=O)[O-])cc1[N+](=O)[O-])N1CCOCC1` please.
Solution: 24300

====

Assay: Plasma pharmacokinetics of II-38 and 2,4-DNP released from II-38
Format: in vivo, Sprague-Dawley male rats
Settings: male, Sprague-Dawley, rat, in vivo, po, 25 mg/kg, oral II-38 eq. to 25 mg/kg of 2,4-DNP, methocel
recorded.endpoint: Tmax (min)
Numbers only, in min.

Problem: Fill in the blank: the reported Tmax of `O=C(Oc1ccc([N+](=O)[O-])cc1[N+](=O)[O-])N1CCOCC1` is ____.
Solution: 27.5
